- Tested on: EKVX NSCLC
- experiment summary: NCI-60 one-dose screen, 48 h (100 = growth as untreated, 0 = no growth, -100 = all killed)
- measurement parameters: 10 µM unless noted
This is part of a sample that, as a whole, favours compounds with a hit. Of some 83,000 tested, about 20% had one in any assay.
Entries and their growth
Write the answer as a number in %, unit excluded.

// below: answered compounds
compound	result unit	growth
Cc1cn(-c2cc(NC(=O)c3cncc(C#Cc4cnc(N)c5ncccc45)c3)cc(C(F)(F)F)c2)cn1	%	85.1
Cc1cc(N2CCCCC2)cc(C)c1-c1csc(NC(=O)c2ccncc2)n1	%	32.9

Turning now to a further record.
GET /values?readout=growth&system=EKVX NSCLC&item= Nc1ncnc2c1C(c1ccc(Br)cc1)c1sc3c(F)cccc3c1O2 (stereo not drawn)
69.3

---

- Tested on: K-562 leukemia
- experiment summary: NCI-60 one-dose screen, 48 h (100 = growth as untreated, 0 = no growth, -100 = all killed)
- measurement parameters: 10 µM unless noted
About 83,000 compounds went through this panel and 20% of them were active in at least one assay; those are over-represented in the sample as a whole. Calls of active or inactive are those of the source. Rule for the calls: active = growth percent below 10; inactive = the rest.
assay endpoint: growth

molecule	result
CS(=O)(=O)Nc1cc(-c2ccc3ncnc(Nc4ccc5c(cnn5Cc5ccc(F)cc5)c4)c3c2)cnc1Cl	48.5% (inactive)
CCc1ccc(CCCC(=O)O)cc1	98.9% (inactive)

Would you mind telling me what growth value was observed for CC(O)(c1ccccc1)C(c1ccccc1)C1CCCCN1 (stereo not drawn) ?
95.6% (inactive)

Entry COc1cc2c(c(OC)c1OC)CCC(c1cccc(NC(=O)c3ccc(Br)cc3)c1)O2 (stereo not drawn) please
49.7% (inactive)

Try C[PH+](c1nc2ccccc2nc1[PH+](C)C(C)(C)C)C(C)(C)C.C[PH+](c1nc2ccccc2nc1[PH+](C)C(C)(C)C)C(C)(C)C.[Au+].[Cl-] (stereo not drawn) next.
1.72% (active)

Now the molecule N#CSCC1CC(O)(c2ccccc2)CC(c2ccc(F)cc2)O1 (stereo not drawn)
20.7% (inactive)

Query COc1ccc(OC)c(-c2nc(SCC(=O)c3ccc(C#N)cc3)[nH]c(=O)c2C#N)c1 next
111% (inactive)

Now the molecule O=C(Nc1nc2ccc(C(=O)N3CCN(/C=C/c4ccccc4)CC3)cc2s1)c1ccc(NCCc2ccccc2)c([N+](=O)[O-])c1
-18.7% (active)

What about this molecule? O=c1c2ccccc2n2cnc3ccc(Cl)c1c32
97.2% (inactive)

Next molecule: O=C(/C=C/c1ccco1)Nc1ncc(Cc2cccc(C(F)(F)F)c2)s1
4.59% (active)

Then this molecule: CCOC(=O)C1=C(N)Oc2c(sc3c(F)cccc23)C1c1ccc(O)cc1 (stereo not drawn)
12.6% (inactive)

N#Cc1c(-c2ccccc2)cc(-c2ccc(Nc3nc(Nc4ccc(Cl)cc4)nc(Nc4ccc(Cl)cc4)n3)cc2)nc1N , same question.
32.6% (inactive)

Next: Nc1[nH]n2cc(-c3ccccc3)nc2c1N=Nc1ccc(S(N)(=O)=O)cc1
32.9% (inactive)

What do you get for Nc1n[nH]c2cccc(C#Cc3cccc(C(=O)Nc4cc(C(F)(F)F)cc(C(F)(F)F)c4)c3)c12 ?
4.87% (active)

Please give the result for CCC(=O)Oc1ccc(-c2ccccc2)cc1Br too.
107% (inactive)

Okay, and COC12C=C/C(=C(/C(=O)OCc3ccncn3)C(=O)CCCCCCCCC3(OC)C=C/C(=C(/C(=O)OCc4ccncn4)C(=O)CCCCCCCC1)O3)O2 ?
-5.58% (active)

Let us now turn to N#Cc1nc(-c2ccccc2)oc1S(=O)(=O)N1CCN(c2ccccc2)CC1
34.9% (inactive)

Now the molecule O=C1Nc2ccccc2/C1=C/c1cccn1CCCCn1c2ccccc2c(=O)c2ccccc21
59.5% (inactive)

---

- Test system: UACC-257 melanoma
- experiment summary: NCI-60 one-dose screen, 48 h
- measurement parameters: 10 µM unless noted
Compounds without any hit were thinned out: in the full panel of roughly 83,000, 20% have a hit. Activity calls are given as the source filed them. Rule for the calls: active = growth percent below 10; inactive = the rest.
# valid calls are active, inactive; nothing else

Just curious, what result did CC(C)=CC(=O)OCC(=O)O[C@@H]1C[C@]2(C(C)C)O[C@@]1(C)[C@@H]1CC[C@@H](C)[C@H]1[C@@H]2OC(=O)/C=C/c1ccccc1 get here?
inactive

And what about the compound COc1ccc(-c2nn(-c3cccc(Cl)c3)cc2-c2cc(-c3ccc(Br)cc3)nc(N)n2)cc1 ?
inactive

Repeat with COc1ccc(CNc2c3ccccc3nc3ccccc23)cc1
inactive

Next compound up: CCOC(=O)NC(C)C
inactive

And the next one, Cn1cc(-c2csc(-c3c[nH]c4ccccc34)n2)c2cnccc21 ?
inactive

Ok, now CNC(=O)c1[nH]cc(-c2ccc(OC)cc2)c1-c1cc(OC)c2c(c1OC)OCO2
inactive

Same thing, different compound: COc1ccc(NC(=O)c2sc3nc(C)c(C(=O)/C=C/c4ccccc4)cc3c2N)cc1
inactive

Try this compound next: CCOC(=O)n1cc(-c2nonc2-c2cn(C(=O)OCC)c3ccc(Br)cc23)c2ccccc21
inactive

Try this compound too: C=C1C(=O)O[C@H]2[C@H]1CC/C(COC(=O)c1cc3ccccc3s1)=C\CC[C@@]1(C)O[C@@H]21
active

Also, COc1c(B(O)O)cccc1-c1nc2c(F)cc3[nH]ncc3c2c2c1CCCC2 please.
inactive

Now consider CCN(C)S(=O)(=O)Nc1cccc(Nc2ncnc3cc(NC(=O)CCl)ccc23)c1Cl and answer again.
inactive

Query CC(=O)Oc1ccc(C)cc1C next
inactive

---

- System: U251 CNS
- experiment summary: NCI-60 one-dose screen, 48 h (100 = growth as untreated, 0 = no growth, -100 = all killed)
- measurement parameters: 10 µM unless noted
This is part of a sample that, as a whole, favours compounds with a hit. Of some 83,000 tested, about 20% had one in any assay.
assay endpoint: growth (%)
Numbers only; they are read as %.

Past entries and their recorded results:
compound	target desc	growth, %
CCCCCC(/C=N\NC(=S)N/N=C/C(=C/c1ccccc1)CCCCC)=C\c1ccccc1	U251 CNS	55.3
O=C(Nc1ccc(Oc2cccc(Cl)c2)c(Cl)c1)c1cnccn1	U251 CNS	16.5

Here is another compound to look at.
Returns the measured growth for the input compound. Input: O=C(CN1C(=O)NC2NC(=O)NC21)N/N=C/c1ccccc1[N+](=O)[O-] (stereo not drawn)
107

---

- Test system: SK-MEL-2 melanoma
- experiment summary: NCI-60 one-dose screen, 48 h (100 = growth as untreated, 0 = no growth, -100 = all killed)
- measurement parameters: 10 µM unless noted
This is part of a sample that, as a whole, favours compounds with a hit. Of some 83,000 tested, about 20% had one in any assay.
The label depends only on growth: 1.0 if it is at least 50%, 0.0 if it is smaller.

molecule	discrete label
COc1cc2cc(NCc3cccc(Cl)c3)nc(C)c2cc1OC	0.0
c1cc2c(ccc3[nH]c(-c4ccc5[nH]ncc5c4)c4c(c32)CCCC4)n1	1.0
C#Cc1c2c(c(OC)c3c1OCO3)[C@H]([C@H]1OC(=O)c3c1ccc(OC)c3OC)N(C)CC2	1.0

Could you tell me if the measured growth of CCSC(SCC)c1ccc(Cl)cc1 reaches 50% or more?
1.0

And what about the molecule COc1cc2ncnc(Nc3ccc(F)c(Cl)c3)c2cc1OCC(=O)N1CCN(c2ccccc2)CC1 ?
1.0

Try this molecule next: Cc1cccc(/C=C/c2c(C(=O)/C=C/c3ccccc3)c(C)nc3ccccc23)c1
0.0

And then N#Cc1c(-c2ccccc2)cc(-c2ccccc2)n(CCCC(=O)Nc2ccccc2N)c1=O , what is it?
0.0

What do you get for CCN1C(=S)N(c2ccccc2)C2C1NN=c1s/c(=C3\C(=O)N(C(C)C)c4ccccc43)c(=O)n12 (stereo not given) ?
1.0

Item: O=C(CN1CCOCC1)Nc1nc(-c2cc3ccccc3oc2=O)cs1
1.0

Consider next the molecule CC1CN(S(=O)(=O)c2oc(-c3ccc(Cl)cc3)nc2C#N)CC(C)O1 (stereo not given) in the same way.
1.0

Could you do the same for COC(=O)CC[C@@H]1O[C@@H](c2cccc(C(F)(F)F)c2)[C@@H](O)[C@H]1O , please?
1.0

# iterate: N#CSCC1CC(O)(c2ccccc2)CC(c2ccc(F)cc2)O1 (stereo not given)
0.0

Please give the result for O=C(NCCCl)Nc1ncccc1OCc1ccccc1 too.
1.0

// query: COc1ccc(/C=C(\C#N)n2nnc3ccc(Cl)cc32)cc1
1.0

// same read-out, input: COc1ccc2c(c1OC)CO[C@@H]2[C@H]1c2c(cc3c(c2OC)OCO3)CCN1S(=O)(=O)c1cn(C)cn1
0.0

Next entry: CC1=NC2=Nn3c(c4cnn(-c5ccccc5)c4n/c3=N\N)NN2C(c2ccccc2)=C1
1.0

Now give it for Nc1n[nH]c2ccc([C@H]3[C@@H]4C5CCC(C5)[C@@H]4c4c(ccc5[nH]ncc45)N3S(=O)(=O)C3CC3)cc12 (stereo not given in full) too.
1.0

Further, for CCSc1oc(-c2ccccc2)nc1[P+](c1ccccc1)(c1ccccc1)c1ccccc1 ?
0.0

Consider next the molecule CC(C)c1ccc(C(=O)Nc2nc3ccc(O)c(CN(C)C)c3s2)cc1 in the same way.
1.0
